Reference source for all entries: patent US10351575B2

# Experimental System: p38gamma (Homo sapiens (Human), UniProt P53778)
# Sequence (P53778 whole entry): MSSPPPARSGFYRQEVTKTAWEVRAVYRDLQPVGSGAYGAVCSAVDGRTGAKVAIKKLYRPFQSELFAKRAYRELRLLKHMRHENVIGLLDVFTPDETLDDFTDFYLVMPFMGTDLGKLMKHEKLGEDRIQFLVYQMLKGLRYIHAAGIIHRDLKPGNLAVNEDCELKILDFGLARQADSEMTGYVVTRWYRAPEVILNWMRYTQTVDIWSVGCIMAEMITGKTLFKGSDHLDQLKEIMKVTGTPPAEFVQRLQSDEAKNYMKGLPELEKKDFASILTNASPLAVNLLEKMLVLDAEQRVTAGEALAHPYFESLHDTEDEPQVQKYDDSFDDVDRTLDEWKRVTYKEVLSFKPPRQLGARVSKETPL
# Assay Name: KinaseProfiler off-target kinase profiling
# Assay type: biochemical
# Test Settings: 10 μM, ATP near Km
Measurement Kind: Avg. POC (POC)

Recorded Avg. POC for Cc1c(-c2cnn(C)c2)nn(-c2ccccc2)c1NC(=O)NC1CCOc2cc(F)ccc21 (stereo not shown) , please? 111

Recorded Avg. POC for Cc1c(-c2cnn(C)c2)nn(-c2ccccc2)c1NC(=O)N[C@H]1CCCc2ccccc21 , please? 115

Recorded Avg. POC for COCc1ccc2c(c1)C(NC(=O)Nc1c(C)c(-c3cnn(C)c3)nn1-c1ccccc1)COC2 (stereo not shown) , please? 116.5

Recorded Avg. POC for Cc1c(-c2ccc(=O)n(C)c2)nn(-c2ccccc2)c1NC(=O)NC1CN(CC(F)(F)F)Cc2ccccc21 (stereo not shown) , please? 118

###

# Experimental System: UniProtKB P34947
# Sequence (P34947 whole entry): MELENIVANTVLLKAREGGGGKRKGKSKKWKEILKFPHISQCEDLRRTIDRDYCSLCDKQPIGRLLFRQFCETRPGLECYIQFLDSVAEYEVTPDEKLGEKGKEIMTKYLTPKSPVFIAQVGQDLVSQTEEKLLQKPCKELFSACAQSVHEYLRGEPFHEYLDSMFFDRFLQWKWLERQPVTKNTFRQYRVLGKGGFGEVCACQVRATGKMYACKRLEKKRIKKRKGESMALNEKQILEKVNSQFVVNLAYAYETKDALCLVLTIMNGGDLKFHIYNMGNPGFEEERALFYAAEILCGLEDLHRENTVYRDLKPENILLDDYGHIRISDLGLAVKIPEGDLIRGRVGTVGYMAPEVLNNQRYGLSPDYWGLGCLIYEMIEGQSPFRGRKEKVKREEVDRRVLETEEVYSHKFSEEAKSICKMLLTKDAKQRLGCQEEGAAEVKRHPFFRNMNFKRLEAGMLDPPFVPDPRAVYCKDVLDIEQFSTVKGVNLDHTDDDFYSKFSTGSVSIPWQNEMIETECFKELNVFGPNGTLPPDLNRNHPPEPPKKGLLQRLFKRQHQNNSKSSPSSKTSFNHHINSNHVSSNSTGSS
# Assay Name: KinaseProfiler off-target kinase profiling
# Type: biochemical
# Test Settings: 10 μM, ATP near Km
Measurement Kind: Avg. POC (POC)

Recorded Avg. POC for Cc1c(-c2cnn(C)c2)nn(-c2ccccc2)c1NC(=O)N[C@H]1CCCc2ccccc21 , please? 106.5

Recorded Avg. POC for Cc1c(-c2ccc(=O)n(C)c2)nn(-c2ccccc2)c1NC(=O)NC1CN(CC(F)(F)F)Cc2ccccc21 (stereo not shown) , please? 86

Recorded Avg. POC for Cc1c(-c2cnn(C)c2)nn(-c2ccccc2)c1NC(=O)NC1CCOc2cc(F)ccc21 (stereo not shown) , please? 83.5

Recorded Avg. POC for COCc1ccc2c(c1)C(NC(=O)Nc1c(C)c(-c3cnn(C)c3)nn1-c1ccccc1)COC2 (stereo not shown) , please? 90

###

# Experimental System: TAK1 (Homo sapiens (Human))
# Sequence (O43318 1-303): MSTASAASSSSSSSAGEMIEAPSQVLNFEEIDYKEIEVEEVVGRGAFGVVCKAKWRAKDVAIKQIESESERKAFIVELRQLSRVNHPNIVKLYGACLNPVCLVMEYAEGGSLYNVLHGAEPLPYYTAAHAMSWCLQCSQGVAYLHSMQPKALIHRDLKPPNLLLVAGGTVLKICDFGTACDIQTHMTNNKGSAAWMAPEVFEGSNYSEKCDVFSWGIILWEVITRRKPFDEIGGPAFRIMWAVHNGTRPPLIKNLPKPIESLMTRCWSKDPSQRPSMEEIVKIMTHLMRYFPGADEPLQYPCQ
# Sequence (Q15750 437-504 partner): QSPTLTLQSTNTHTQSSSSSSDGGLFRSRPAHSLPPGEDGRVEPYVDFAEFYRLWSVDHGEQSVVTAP
# Assay Name: KinaseProfiler off-target kinase profiling
# Format: biochemical
# Test Settings: 10 μM, ATP near Km
Measurement Kind: Avg. POC (POC)

Recorded Avg. POC for Cc1c(-c2ccc(=O)n(C)c2)nn(-c2ccccc2)c1NC(=O)NC1CN(CC(F)(F)F)Cc2ccccc21 (stereo not shown) , please? 108.5

Recorded Avg. POC for COCc1ccc2c(c1)C(NC(=O)Nc1c(C)c(-c3cnn(C)c3)nn1-c1ccccc1)COC2 (stereo not shown) , please? 99.5

Recorded Avg. POC for Cc1c(-c2cnn(C)c2)nn(-c2ccccc2)c1NC(=O)NC1CCOc2cc(F)ccc21 (stereo not shown) , please? 97

Recorded Avg. POC for Cc1c(-c2cnn(C)c2)nn(-c2ccccc2)c1NC(=O)N[C@H]1CCCc2ccccc21 , please? 106

###

# Experimental System: SRC (Homo sapiens (Human), UniProt P12931)
# Sequence (P12931 whole entry, looked up): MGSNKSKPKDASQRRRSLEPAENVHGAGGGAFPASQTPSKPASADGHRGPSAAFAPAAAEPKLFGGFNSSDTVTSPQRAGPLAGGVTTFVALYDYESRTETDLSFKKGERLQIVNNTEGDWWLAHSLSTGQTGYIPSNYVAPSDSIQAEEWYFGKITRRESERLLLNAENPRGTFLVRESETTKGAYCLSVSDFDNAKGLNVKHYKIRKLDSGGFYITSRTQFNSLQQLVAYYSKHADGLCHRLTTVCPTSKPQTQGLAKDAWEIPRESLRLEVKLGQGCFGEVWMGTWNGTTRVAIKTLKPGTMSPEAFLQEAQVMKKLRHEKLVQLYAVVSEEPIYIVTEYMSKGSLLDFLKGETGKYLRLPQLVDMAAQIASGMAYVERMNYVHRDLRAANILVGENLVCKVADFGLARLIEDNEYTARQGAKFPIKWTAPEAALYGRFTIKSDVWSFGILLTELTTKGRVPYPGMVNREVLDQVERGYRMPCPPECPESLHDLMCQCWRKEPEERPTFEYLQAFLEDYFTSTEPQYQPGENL
# Assay Name: KinaseProfiler off-target kinase profiling
# Type: biochemical
# Test Settings: 10 μM, ATP near Km
Measurement Kind: Avg. POC (POC)

Recorded Avg. POC for Cc1c(-c2ccc(=O)n(C)c2)nn(-c2ccccc2)c1NC(=O)NC1CN(CC(F)(F)F)Cc2ccccc21 (stereo not shown) , please? 104.5

Recorded Avg. POC for Cc1c(-c2cnn(C)c2)nn(-c2ccccc2)c1NC(=O)N[C@H]1CCCc2ccccc21 , please? 99.5

Recorded Avg. POC for Cc1c(-c2cnn(C)c2)nn(-c2ccccc2)c1NC(=O)NC1CCOc2cc(F)ccc21 (stereo not shown) , please? 97

Recorded Avg. POC for COCc1ccc2c(c1)C(NC(=O)Nc1c(C)c(-c3cnn(C)c3)nn1-c1ccccc1)COC2 (stereo not shown) , please? 108.5
